Data provenance: ChEMBL document CHEMBL1148578

System: Human alphaherpesvirus 3
Assay: Antiviral activity against Varicella-Zoster virus 07/1 strain
Assay type: functional, organism-based
Details: Human alphaherpesvirus 3, 07/1
recorded endpoint: pEC50
Please note pEC50 is a logarithmic value: minus log10 of concentration in mol/L. Answer with that number alone.

- smiles string: "CCCCCCCCC#Cc1cc2cn([C@@H]3O[C@H](CO)[C@@H](O)[C@@H]3O)c(=O)nc2o1"
  pEC50: 4.96
- smiles string: "CCCCC#Cc1cc2cn([C@@H]3O[C@H](CO)[C@@H](O)[C@H]3O)c(=O)nc2o1"
  pEC50: 3.84

The measured pEC50 that CCCCCCC#Cc1cc2cn([C@@H]3O[C@H](CO)[C@@H](O)[C@H]3O)c(=O)nc2o1 showed for Human alphaherpesvirus 3 is 4.41
